- assayed.target: Vasopressin V1a receptor (Rattus norvegicus, UniProt P30560)
- Sequence (P30560 whole entry): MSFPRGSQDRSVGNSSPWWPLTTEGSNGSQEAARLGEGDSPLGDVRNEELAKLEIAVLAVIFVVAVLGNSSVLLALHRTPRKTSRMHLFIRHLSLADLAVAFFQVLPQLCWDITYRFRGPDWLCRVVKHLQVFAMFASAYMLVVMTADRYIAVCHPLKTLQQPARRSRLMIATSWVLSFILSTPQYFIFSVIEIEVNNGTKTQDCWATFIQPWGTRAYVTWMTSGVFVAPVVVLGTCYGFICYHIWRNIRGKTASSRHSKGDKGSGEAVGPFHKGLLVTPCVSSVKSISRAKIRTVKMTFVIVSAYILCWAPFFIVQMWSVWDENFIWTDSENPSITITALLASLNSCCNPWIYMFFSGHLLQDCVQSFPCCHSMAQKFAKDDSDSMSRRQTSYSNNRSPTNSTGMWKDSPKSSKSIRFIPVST
- test.protocol: Inhibition constant for V1a receptor of rat liver membrane
parameter: pKi
The read-out pKi is expressed as -log10 of concentration in moles per litre.

Known pKi results, listed for orientation:
| compound | pKi |
| --- | --- |
| COc1ccc(C[C@@H](NC(=O)CCc2cccc(N=[N+]=[N-])c2)C(=O)N[C@@H](Cc2ccccc2)C(=O)N[C@@H](CCC(N)=O)C(=O)N[C@@H](CC(N)=O)C(=O)N[C@@H](CCCNC(=N)N)C(=O)N2CCC[C@H]2C(=O)N[C@@H](CCCNC(=N)N)C(=O)N[C@@H](Cc2ccc(O)cc2)C(N)=O)cc1 (stereo in doubt; 21) | 9.57 |
| COc1ccc(C[C@@H](NC(=O)Cc2ccc(N=[N+]=[N-])cc2)C(=O)N[C@@H](Cc2ccccc2)C(=O)N[C@@H](CCC(N)=O)C(=O)N[C@@H](CC(N)=O)C(=O)N[C@@H](CCCNC(=N)N)C(=O)N2CCC[C@H]2C(=O)N[C@@H](CCCNC(=N)N)C(=O)N[C@@H](Cc2ccc(O)cc2)C(N)=O)cc1 (stereo in doubt; 18) | 9.23 |
| COc1ccc(C[C@@H](NC(=O)Cc2cccc(N=[N+]=[N-])c2)C(=O)N[C@@H](Cc2ccccc2)C(=O)N[C@@H](CCC(N)=O)C(=O)N[C@@H](CC(N)=O)C(=O)N[C@@H](CCCNC(=N)N)C(=O)N2CCC[C@H]2C(=O)N[C@@H](CCCNC(=N)N)C(=O)N[C@@H](Cc2ccc(O)cc2)C(N)=O)cc1 (stereo in doubt; 14) | 9.51 |

Inquiry: Return value of pKi for input COc1ccc(C[C@@H](NC(=O)CCCc2ccc(N=[N+]=[N-])cc2)C(=O)N[C@@H](Cc2ccccc2)C(=O)N[C@@H](CCC(N)=O)C(=O)N[C@@H](CC(N)=O)C(=O)N[C@@H](CCCN=C(N)N)C(=O)N2CCC[C@H]2C(=O)N[C@@H](CCCN=C(N)N)C(=O)N[C@@H](Cc2ccc(O)cc2)C(N)=O)cc1 (stereo in doubt; 17) , no commentary.
Reply text: 10.40

Inquiry: Identify the reported pKi for the following entry. COc1ccc(C[C@@H](NC(=O)CCc2cccc(N=[N+]=[N-])c2)C(=O)N[C@@H](Cc2ccccc2)C(=O)N[C@@H](CCC(N)=O)C(=O)N[C@@H](CC(N)=O)C(=O)N[C@@H](CCCNC(=N)N)C(=O)N2CCC[C@H]2C(=O)N[C@@H](CCCNC(=N)N)C(=O)N[C@@H](Cc2ccc(O)cc2)C(N)=O)cc1 (stereo in doubt; 16)
Reply text: 9.80

Inquiry: Give reported pKi value for COc1ccc(C[C@@H](NC(=O)CCc2ccc(N=[N+]=[N-])cc2)C(=O)N[C@@H](Cc2ccccc2)C(=O)N[C@@H](CCC(N)=O)C(=O)N[C@@H](CC(N)=O)C(=O)N[C@@H](CCCN=C(N)N)C(=O)N2CCC[C@H]2C(=O)N[C@@H](CCCN=C(N)N)C(=O)N[C@@H](Cc2ccc(O)cc2)C(N)=O)cc1 (stereo in doubt; 20)
Reply text: 9.33

Inquiry: Please report the measured pKi for COc1ccc(C[C@@H](NC(=O)CCc2ccc(N=[N+]=[N-])cc2)C(=O)N[C@@H](Cc2ccccc2)C(=O)N[C@@H](CCC(N)=O)C(=O)N[C@@H](CC(N)=O)C(=O)N[C@@H](CCCN=C(N)N)C(=O)N2CCC[C@H]2C(=O)N[C@@H](CCCN=C(N)N)C(=O)N[C@@H](Cc2ccc(O)cc2)C(N)=O)cc1 (stereo in doubt; 15)
Reply text: 9.70

Inquiry: Annotate the compound COc1ccc(C[C@@H](NC(=O)Cc2cccc(N=[N+]=[N-])c2)C(=O)N[C@@H](Cc2ccccc2)C(=O)N[C@@H](CCC(N)=O)C(=O)N[C@@H](CC(N)=O)C(=O)N[C@@H](CCCNC(=N)N)C(=O)N2CCC[C@H]2C(=O)N[C@@H](CCCNC(=N)N)C(=O)N[C@@H](Cc2ccc(O)cc2)C(N)=O)cc1 (stereo in doubt; 19) with its measured pKi.
Reply text: 8.96
